- Test Method Notes: Waters ACQUITY UPLC BEH C18, 100 × 2.1 mm, 1.7 µm, 40 °C, 0.3 to 0.4 mL/min, estimated dead time 0.63 min; A: water + 0.1% formic acid; B: methanol + 0.1% formic acid; gradient (min/%B) 0/0.5 0.1/0.5 10/80 10.1/99.5 12/99.5
- Measurement Parameters: stereoisomer not certain
# LC retention time per entry
State just the number; it will be interpreted in min.

C=CCc1ccc(O)c(-c2ccc(O)c(CC=C)c2)c1 :: 8.63
CCC12C=CCN3CCc4c(n(c5ccccc45)C(O)(C(=O)OC)C1)C32 (centres undefined) :: 4.26
CC12CC3(O)OC(O1)C1(COC(=O)c4ccccc4)C3CC21OC1OC(CO)C(O)C(O)C1O (centres undefined) :: 3.78

The recorded LC retention time for entry CC1(C)CC(O)C2(C)CCC3(C)C(=CCC4C5(C)CCC(OC6OC(C(=O)O)C(O)C(O)C6OC6OCC(O)C(O)C6O)C(C)(CO)C5CCC43C)C2C1 (centres undefined) equals 7.44

The recorded LC retention time for entry CC1CCC2(OC1O)OC1CC3C4CC=C5CC(OC6OC(CO)C(OC7OC(C)C(O)C(O)C7O)C(O)C6OC6OC(C)C(O)C(O)C6O)CCC5(C)C4CC(O)C3(C)C1C2C (centres undefined) equals 5.61

====

# LC retention time per entry
- Test Method Notes: Waters ACQUITY UPLC BEH C18, 100 × 2.1 mm, 1.7 µm, 40 °C, 0.3 to 0.4 mL/min, estimated dead time 0.63 min; A: water + 0.1% formic acid; B: methanol + 0.1% formic acid; gradient (min/%B) 0/0.5 0.1/0.5 10/80 10.1/99.5 12/99.5
- Measurement Parameters: stereoisomer not certain
State just the number; it will be interpreted in min.

As a guide, the following entries are already answered.
O=c1cc(-c2ccc(O)c(O)c2)oc2cc(O)c(C3OC(CO)C(O)C(O)C3OC3OC(CO)C(O)C(O)C3O)c(O)c12 (stereo not given) :: 3.44
CC(C)C(N)C(=O)NC(C(=O)O)C(C)C (stereo not given) :: 2.15
COc1cc2c(cc1OC)C1C(C)c3ccc(OC)c(OC)c3CN1CC2 (stereo not given) :: 4.86
CC(C)C(O)(C(=O)OCC1CC[N+]2([O-])CCCC12)C(C)O (stereo not given) :: 3.11

The recorded LC retention time for entry Nc1[nH]c(=O)[nH]c(=O)c1OC1OC(CO)C(O)C(O)C1OC1OC(CO)C(O)C1O (stereo not given) equals 2.16

The recorded LC retention time for entry `CN1CCC23c4ccccc4NC1C21CCN(C)C3Nc2ccccc21` equals 2.57

The recorded LC retention time for entry COc1cc(-c2[o+]c3cc(O)cc(O)c3cc2OC2OC(CO)C(O)C(O)C2O)cc(OC)c1O (stereo not given) equals 3.19

The recorded LC retention time for entry `Cc1ccc2ccc3ccc(C)nc3c2n1` equals 3.47

====

# LC retention time per entry
- Test Method Notes: Waters ACQUITY UPLC BEH C18, 100 × 2.1 mm, 1.7 µm, 40 °C, 0.3 to 0.4 mL/min, estimated dead time 0.63 min; A: water + 0.1% formic acid; B: methanol + 0.1% formic acid; gradient (min/%B) 0/0.5 0.1/0.5 10/80 10.1/99.5 12/99.5
- Measurement Parameters: stereoisomer not certain
State just the number; it will be interpreted in min.

As a guide, the following entries are already answered.
C=C1CC(=CC)C(=O)OC2CCN3CC=C(COC(=O)C1(C)O)C23 (stereo not drawn) :: 3.45
COc1ccc(CCNC(=O)C=Cc2ccc(O)c(OC)c2)cc1O :: 5.29

The recorded LC retention time for entry O=c1cc(-c2ccc(O)cc2)oc2cc(OC3OC(CO)C(O)C(O)C3O)c(C3OC(CO)C(O)C(O)C3O)c(O)c12 (stereo not drawn) equals 3.52

The recorded LC retention time for entry `O=C(CCc1ccc(O)c(O)c1)NCCCCNCCCNC(=O)CCc1ccc(O)c(O)c1` equals 3.14

The recorded LC retention time for entry O=C(O)CC(=O)OCC1OC(Oc2cc(O)c3c(=O)c(-c4ccc(O)cc4)coc3c2)C(O)C(O)C1O (stereo not drawn) equals 4.89

The recorded LC retention time for entry CC=C1CN2C3CC1C(CO)C2Cc1c3[nH]c2cc(OC)ccc12 (stereo not drawn) equals 3.68

The recorded LC retention time for entry C=CC1C2=CCOC(=O)C2=COC1OC1OC(CO)C(O)C(O)C1O (stereo not drawn) equals 3.44

The recorded LC retention time for entry COc1cc(-c2cc(=O)c3c(O)cc(OC4OC(C(=O)O)C(O)C(O)C4O)cc3o2)cc(OC)c1OC1OC(CO)C(O)C(O)C1O (stereo not drawn) equals 4.05

The recorded LC retention time for entry CC1OC(OC2C(Oc3cc(O)c4c(c3)OC(c3ccc(O)cc3)CC4=O)OC(CO)C(O)C2O)C(O)C(O)C1O (stereo not drawn) equals 4.38

====

- Test Method Notes: Waters ACQUITY UPLC BEH C18, 100 × 2.1 mm, 1.7 µm, 40 °C, 0.3 to 0.4 mL/min, estimated dead time 0.63 min; A: water + 0.1% formic acid; B: methanol + 0.1% formic acid; gradient (min/%B) 0/0.5 0.1/0.5 10/80 10.1/99.5 12/99.5
- Measurement Parameters: stereoisomer not certain
# LC retention time per entry
State just the number; it will be interpreted in min.

O=C([O-])CC(=O)OCC1OC(OC2Cc3c(O)cc(O)cc3[O+]=C2c2ccc(O)cc2)C(O)C(O)C1O (stereo not drawn) :: 4.88
O=c1cc(-c2ccc(O)c(O)c2)oc2cc(O)c(C3OC(CO)C(O)C(O)C3O)c(O)c12 (stereo not drawn) :: 3.59
CC1=C(O)C(=O)CC(OC2CC(C)(C)CC3C4=CCC5C6(C)CCC(OC7OC(C(=O)O)C(O)C(O)C7OC7OC(CO)C(O)C(O)C7OC7OC(C)C(O)C(O)C7O)C(C)(CO)C6CCC5(C)C4(C)CCC23C)O1 (stereo not drawn) :: 7.68
CC(C)CC(N)C(=O)N1CCCC1C(=O)O (stereo not drawn) :: 2.72
CCC(C)C(NC(=O)C([NH3+])C(C)C)C(=O)[O-] (stereo not drawn) :: 2.88

The recorded LC retention time for entry COC(=O)C1C2CC3c4[nH]c5cc(OC)ccc5c4CCN3CC2CC(OC(=O)c2cc(OC)c(OC)c(OC)c2)C1OC (stereo not drawn) equals 6.12

The recorded LC retention time for entry CN1C2CCC1CC(OC(=O)C(O)c1ccccc1)C2 (stereo not drawn) equals 3.15

The recorded LC retention time for entry CCC(C)C(N)C(=O)NC(C(=O)O)C(C)CC (stereo not drawn) equals 3.05

====

# LC retention time per entry
- Test Method Notes: Waters ACQUITY UPLC BEH C18, 100 × 2.1 mm, 1.7 µm, 40 °C, 0.3 to 0.4 mL/min, estimated dead time 0.63 min; A: water + 0.1% formic acid; B: methanol + 0.1% formic acid; gradient (min/%B) 0/0.5 0.1/0.5 10/80 10.1/99.5 12/99.5
- Measurement Parameters: stereoisomer not certain
State just the number; it will be interpreted in min.

CC(C)=CCCC(C)(OC1OC(CO)C(O)C(O)C1O)C1CCC2(C)C1C(O)CC1C3(C)CCC(O)C(C)(C)C3C(OC3OC(CO)C(O)C(O)C3OC3OC(C)C(O)C(O)C3O)CC12C (stereo not given) :: 4.79
CCC(C)C(=O)OC1C(O)C2C(CN3CC(C)CCC3C2(C)O)C2CC34OC5(O)C(OC(=O)C(C)(O)C(C)OC(C)=O)CCC3(C)C5CC(O)C4C21O (stereo not given) :: 5.04
CS(=O)CCCCCCCCN (stereo not given) :: 2.49

The recorded LC retention time for entry CC1(C)CCC2(C(=O)O)CCC3(C)C(=CCC4C5(C)CC(O)C(OC6OC(CO)C(OC7OC(CO)C(O)C(O)C7O)C(O)C6O)C(C)(CO)C5CCC43C)C2C1 (stereo not given) equals 7.01

The recorded LC retention time for entry O=S(=O)(O)ON=C(Cc1ccccc1)SC1OC(CO)C(O)C(O)C1O (stereo not given) equals 2.83

====

- Test Method Notes: Waters ACQUITY UPLC BEH C18, 100 × 2.1 mm, 1.7 µm, 40 °C, 0.3 to 0.4 mL/min, estimated dead time 0.63 min; A: water + 0.1% formic acid; B: methanol + 0.1% formic acid; gradient (min/%B) 0/0.5 0.1/0.5 10/80 10.1/99.5 12/99.5
- Measurement Parameters: stereoisomer not certain
Label scheme, based on LC retention time: I: < 4 min; II: ≥ 4 min and < 5 min; III: ≥ 5 min

O=c1c(OC2OC(CO)C(O)C(O)C2O)c(-c2ccc(O)cc2)oc2cc(O)cc(O)c12 (stereo unspecified) :: II
O=c1c(O)c(-c2ccc(OC3OC(CO)C(O)C(O)C3O)c(O)c2)oc2cc(O)cc(O)c12 (stereo unspecified) :: II
CC(CCC1(O)OC2CC3C4CCC5CC(OC6OC(CO)C(O)C(O)C6OC6OC(CO)C(O)C(O)C6O)C(O)CC5(C)C4CCC3(C)C2C1C)COC1OC(CO)C(O)C(O)C1O (stereo unspecified) :: II
CCCCCCCCCCCCCCCC(=O)OCC(O)COP(=O)(O)OCCNC1OC(CO)C(O)C(O)C1O (stereo unspecified) :: III
COc1cc2c3cc1Oc1cc(ccc1O)CC1c4c(cc(OC)c(O)c4Oc4ccc(cc4)CC3N(C)CC2)CC[N+]1(C)C (stereo unspecified) :: I
CC1(C)CCC2(C(=O)OC3OC(CO)C(O)C(O)C3O)CCC3(C)C(=CCC4C5(C)CCC(OC6OC(C(=O)O)C(OC7OC(CO)C(O)C7O)C(O)C6O)C(C)(C)C5CCC43C)C2C1 (stereo unspecified) :: III

Bin? `COc1c2c(cc3c1OCO3)CCN(C)C2`
I

Bin? COc1ccc2c(c1)OC(O)C(=O)N2O (stereo unspecified)
I
